System: NOMO1
assay.details: cell viability relative to DMSO control; higher = less cytotoxic
condition.label: RPMI 5 mM glucose + 10% dialyzed FBS; 48 h; 0.00702 µM

{"columns": ["mol.smiles", "unit.annotation", "cell viability"],
 "data": [
  ["CC[C@H](C)C(=O)O[C@H]1C[C@H](O)\\C=C2\\C=C/[C@H](C)[C@H](CC[C@@H](O)C[C@@H](O)CC(O)=O)[C@@H]12", "%", 117],
  ["O=C(Cc1ccc(-c2ccc(OCCN3CCOCC3)cc2)cn1)NCc1ccccc1", "%", 124],
  ["C[S+](=O)([O-])c1ccc(C(=O)Nc2ccc(Cl)c(-c3ccccn3)c2)c(Cl)c1", "%", 138],
  ["COc1ccc([C@@H]2CC(=O)c3c(O)cc(O[C@@H]4O[C@H](CO[C@@H]5O[C@@H](C)[C@H](O)[C@@H](O)[C@H]5O)[C@@H](O)[C@H](O)[C@H]4O)cc3O2)cc1O", "%", 115]
]}
